Species on record: Rattus norvegicus
experiment: Open TG-GATES - Regimen: Daily Repeat
Format: toxicity, organism-based, Sprague-Dawley
Parameters: regimen Daily Repeat, gender Male, age 6 weeks
test_parameters: in vivo, po, 100 mg/kg, […], tissue Plasma, route gavage, dose level Low, time 14 day
Catalogue of Cl readings, one per entry.
Answer format: numeric, meq/L implied, no suffix.

compound="CCN1CCCC1CNC(=O)c1cc(S(N)(=O)=O)ccc1OC (centres undefined) [SULPIRIDE]" reported=104.5

Specify reported Cl for the compound shown: O=C(N[C@H](CO)[C@H](O)c1ccc([N+](=O)[O-])cc1)C(Cl)Cl
105

Name the recorded Cl of the item CC(C)(S)[C@@H](N)C(=O)O in your answer.
104.2

Hello, please tell me recorded Cl for this one: O=C(O)c1cccnc1
104.6

---

LDH by entry:
Species on record: Rattus norvegicus
experiment: Open TG-GATES - Regimen: Daily Repeat
Assay type: toxicity, organism-based, Sprague-Dawley
Parameters: regimen Daily Repeat, gender Male, age 6 weeks
test_parameters: in vivo, po, 100 mg/kg, […], tissue Plasma, route gavage, dose level Low, time 14 day
Enter your answer as a number in IU/L; do not include the unit.

molecule=O=C(O)c1cccnc1 measured_metric=LDH reported=209
molecule=O=C(N[C@H](CO)[C@H](O)c1ccc([N+](=O)[O-])cc1)C(Cl)Cl measured_metric=LDH reported=54.8
molecule="CCN1CCCC1CNC(=O)c1cc(S(N)(=O)=O)ccc1OC (centres undefined) [SULPIRIDE]" measured_metric=LDH reported=73.5

Give a short answer stating reported LDH for CC(C)(S)[C@@H](N)C(=O)O .
89

---

Organism: Rattus norvegicus
experiment: Open TG-GATES - Regimen: Single
Assay type: toxicity, organism-based, Sprague-Dawley
Parameters: regimen Single, gender Male, age 6 weeks
test_parameters: in vivo, po, 0 mg/kg, 24 h, tissue Liver, route gavage, dose level Control
Tick true (1) if LIVER is 10 g or greater. Tick false (0) if LIVER is less than 10 g.

See these solved cases before continuing.
compound=CN1C(=O)OC(C)(C)C1=O assigned_label="true (1)"
compound=CC(C)(S)[C@@H](N)C(=O)O assigned_label="false (0)"
compound=CCSCC[C@H](N)C(=O)O assigned_label="true (1)"
compound=O=C(N[C@H](CO)[C@H](O)c1ccc([N+](=O)[O-])cc1)C(Cl)Cl assigned_label="true (1)"
compound="CC(=N)S [THIOACETAMIDE]" assigned_label="false (0)"
compound=C#C[C@]1(O)CC[C@H]2[C@@H]3CCc4cc(O)ccc4[C@H]3CC[C@@]21C assigned_label="false (0)"

Evaluate CCc1oc2ccccc2c1C(=O)c1cc(I)c(O)c(I)c1 : LIVER at minimum 10 g?
true (1)

Hello, I need to know if C[C@](N)(Cc1ccc(O)c(O)c1)C(=O)O has measured LIVER not below 10 g. Thanks!
false (0)

---

Organism: Rattus norvegicus
experiment: Open TG-GATES - Regimen: Daily Repeat
Assay type: toxicity, organism-based, Sprague-Dawley
Parameters: regimen Daily Repeat, gender Male, age 6 weeks
test_parameters: in vivo, po, 0 mg/kg, […], tissue Blood, route gavage, dose level Control, time 7 day
Reported MCV values are given for each entry in this list.
Provide only the numeric value, understood in fL.

Example compounds with recorded MCV:
compound=CC(=O)Oc1cc(C(C)C)c(OCCN(C)C)cc1C units_of_measure=fL reported=59.5
compound="CCN1CCCC1CNC(=O)c1cc(S(N)(=O)=O)ccc1OC (stereo not drawn) [SULPIRIDE]" units_of_measure=fL reported=62.5

Proceeding to the next compound to report its MCV.
Indicate its recorded MCV; the compound in question is CC(=N)S [THIOACETAMIDE]
63.1
